assay overview: Human HepG2 cell viability assay in 384 well format
Assay type: toxicity, cell-based
Set-up: dose 125 nL, time 70.5 hour; concentration not given beside the values
cond: HepG2 cells, read-out: Inhibition
quantity name: cytotoxicity at 70.5 h (%)
One number for each entry, in %.

In [3]: df
Out[3]:
                                   compound    val
0     COc1ncccc1C(=O)NC1(c2cccc(F)c2)CCOCC1   22.6
1     NCc1cn(-c2ccccc2C(=O)NCc2ccccc2Cl)cn1  -8.27
2  CC(CO)(CO)NC(=O)C1CCC(=O)N(Cc2ccc(Cl)cc2)C1 (configuration not stated)  -2.86
3  COCC(=O)N1CCCCC1c1nc(C)c2c(n1)N(CC1CC1)C(=O)C2 (configuration not stated)   -2.8
4  CC(C)Cc1noc(CC2CCS(=O)(=O)C2)n1 (configuration not stated)  -6.88
5  FC1(F)CCN(Cc2ccncc2)CC12CCN(c1cnccn1)C2 (configuration not stated)  -8.66

Items follow; give cytotoxicity at 70.5 h for each.
1. CCN(C(=O)COC)C(c1cccnc1)c1ccc2c(c1)CCO2 (configuration not stated)
2. CN(Cc1ccccc1F)C(=O)c1ccoc1

Reply:
1. -2.44
2. -4.97

Count: 3. Required value per item: cytotoxicity at 70.5 h.
1. CC1(c2ncc(CN3CCN(c4ncccn4)CC3)cn2)CCCCO1 (configuration not stated)
2. Cc1sc(-c2ccco2)nc1C(=O)N1CCCC1Cn1cccn1 (configuration not stated)
3. Cc1ccc(-c2ncc(CNc3cnccc3CO)s2)o1

Reply:
-9.22
-1.73
-2.69

Ask: Fill in: cytotoxicity at 70.5 h of CN(C)C(=O)N1CCN(C(=O)c2ccn3cncc3c2)CC1 is ___
Reply: 0.173

---

assay overview: Human HepG2 cell viability assay in 384 well format
Format: toxicity, cell-based
Set-up: dose 125 nL, time 70.5 hour; concentration not given beside the values
cond: HepG2 cells, read-out: Inhibition
Would you mind telling me the reported cytotoxicity at 70.5 h of each entry?
Numbers only, in %.

Here's what some known entries look like.
>>> df
                                   molecule           quantity_name     val
0  CN(C)CC1CN(Cc2nc(-c3ccccn3)no2)CCO1 (centres undefined)  cytotoxicity at 70.5 h    16.4
1  CCS(=O)(=O)NC[C@]12COC[C@H]1CN(Cc1sccc1C)C2  cytotoxicity at 70.5 h  -0.717
2  CNC(=O)NC(=O)CNC(CC(F)(F)F)c1ccc(F)cc1 (centres undefined)  cytotoxicity at 70.5 h    4.15
3  CC(C)(C)c1nc(CN2CCCC2CCc2ccccc2)no1 (centres undefined)  cytotoxicity at 70.5 h    13.1
4  Cc1ccn(-c2ccc(NCc3ccnc(N4CCCCC4)c3)nn2)n1  cytotoxicity at 70.5 h   -10.5
5  O=C(Cc1cccc(F)c1)NC1CCCc2cn[nH]c21 (centres undefined)  cytotoxicity at 70.5 h   -11.9
6      COC(=O)N1CCN(Cc2csc(-c3ncccn3)n2)CC1  cytotoxicity at 70.5 h   -5.37
7  CCNC(=O)[C@@H]1C[C@H](N)CN1C(=O)Cc1cc(C)ccc1C  cytotoxicity at 70.5 h   -12.9

# per-item lookup of cytotoxicity at 70.5 h; items listed below
1. CCOC(=O)N1CC(=O)N(CCc2ccccc2)CC(O)C1 (centres undefined)
2. c1ccc(-c2nc(CN3CCCC(Cn4cncn4)C3)co2)cc1 (centres undefined)
3. CCn1cc(CN2CCN(C)C3(CCC(=O)N(CC4CC4)CC3)C2)cn1 (centres undefined)
4. Cc1nocc1C(=O)N1CCOC2(COCCN(CC3CC3)C2)C1 (centres undefined)
5. CC(C)c1nn(C)c(N(C)C)c1CNCc1ccc(CO)c(F)c1

Reply:
5.59
17.2
1.18
-2.08
1.57

Give cytotoxicity at 70.5 h for all molecules that follow.
1. COc1cccc(C(C)Nc2ncnc3c2NC(=O)CN3)c1 (centres undefined)
2. CSC(C)C(=O)N1CCCN(Cc2cnn(C(C)C)c2)CC1 (centres undefined)
3. Cn1ccc(CN2CCC3(CC2)CC(Nc2cnccn2)CO3)n1 (centres undefined)
4. COc1cccc(OC)c1C(=O)N1CC(=O)N(C2CCC2)CC(O)C1 (centres undefined)
5. N#CCCn1nc(C(F)(F)F)c2c1CCC2

Reply:
[11, -12, -1.03, -0.00128, -2.44]
